system-tested: FAAH prepared from rat brain homogenates (Rattus norvegicus)
Sequence (P97612 whole entry): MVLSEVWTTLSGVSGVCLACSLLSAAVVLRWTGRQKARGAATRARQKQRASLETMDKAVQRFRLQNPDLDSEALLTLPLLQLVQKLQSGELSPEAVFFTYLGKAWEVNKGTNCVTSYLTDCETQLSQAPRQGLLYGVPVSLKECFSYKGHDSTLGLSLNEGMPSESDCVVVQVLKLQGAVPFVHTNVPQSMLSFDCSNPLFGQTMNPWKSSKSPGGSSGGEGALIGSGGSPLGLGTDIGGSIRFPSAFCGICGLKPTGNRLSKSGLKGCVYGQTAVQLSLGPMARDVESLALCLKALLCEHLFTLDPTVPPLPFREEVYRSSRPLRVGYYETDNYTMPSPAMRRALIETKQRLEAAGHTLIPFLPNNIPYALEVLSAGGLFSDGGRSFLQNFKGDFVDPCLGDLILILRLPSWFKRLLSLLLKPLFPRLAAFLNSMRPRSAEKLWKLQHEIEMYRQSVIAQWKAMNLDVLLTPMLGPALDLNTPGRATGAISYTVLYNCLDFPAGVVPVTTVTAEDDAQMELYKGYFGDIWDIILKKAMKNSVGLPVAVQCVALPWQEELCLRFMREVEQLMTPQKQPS
test-summary: In vitro rat FAAH radiometric assay
Assay type: biochemical
test-conditions: read-out: r-FAAH IC50; rat brain homogenate, mean ± SEM (n=3)
measure: IC50 (µM)

O=C(NC1CCCCC1)OCc1cn(Cc2cccc(F)c2)nn1 [Compound 23b]; 0.0121
Cc1cccc(Cn2cc(COC(=O)NC3CCCCC3)nn2)c1 [Compound 25b]; 0.0245
O=C(NC1CCCCC1)OCc1ncn(Cc2ccccc2)n1; 51.5
N#Cc1ccccc1Cn1cc(COC(=O)NC2CCCCC2)nn1 [Compound 22a]; 0.0195
COc1cccc(Cn2cc(CNC(=O)OCc3cn(Cc4ccccc4OC)nn3)nn2)c1; 0.0032
O=C(NC1CCCCC1)OCc1cn(Cc2ccccc2F)nn1 [Compound 23a]; 0.0099
O=C(NC1CCCCC1)OCc1cn(Cc2ccc3ccccc3c2)nn1; 2
COc1ccccc1Cn1cc(COC(=O)NC2CCCCC2)nn1 [Compound 26a]; 0.0014
COc1ccccc1Cn1cc(CNC(=O)OCc2cn(Cc3ccccc3OC)nn2)nn1 [Compound 34a]; 0.154
O=C(NC1CCCCC1)OCc1cn(CCc2ccccc2)nn1; 0.833

I = O=C(NC1CCCCC1)OCc1cn(Cc2ccc(F)cc2)nn1 [Compound 23c]
II = O=C(NC1CCCCC1)OCCc1cn(Cc2ccccc2)nn1
III = COc1ccc(Cn2cc(COC(=O)NC3CCCCC3)nn2)cc1 [Compound 26c]
IV = O=C(NC1CCCCC1)OCCc1cn(-c2ccccc2)nn1
V = Cc1ccccc1Cn1cc(COC(=O)NC2CCCCC2)nn1 [Compound 25a]
Query string: Arrange items by their IC50 values in increasing order. Record the ranking as a list of labels in the requested order.
Result string: V, I, III, IV, II

1 = O=C(NC1CCCCC1)OCc1cn(Cc2c(F)cccc2F)nn1
2 = COc1ccc(Cn2cc(CNC(=O)OCc3cn(Cc4ccccc4OC)nn3)nn2)cc1
Query string: Record comparison, field IC50: mark the lower of 1 and 2 . Indicate your choice by writing its label.
Result string: 2
(2: 0.0076 µM, 1: 0.0119 µM)
